The reported measurements were obtained from PubChem BioAssay AID588780.

Test system: H9c2 cardiomyocytes, 2-deoxyglucose stress, ATP luminescence, 2 h
assay_notes: H9c2 cell survival under 2-deoxyglucose stress – uHTS hits, dose response (AID 588780)
Active and inactive are the calls of the source.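 Rule for the calls: active = compounds whose fitted half-maximal concentration in the cell-protection dose series is at or below a set limit; inactive = the rest.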
Use one of these outcomes when replying: y (active), n (inactive)

COc1ccc(Cl)cc1-c1nc(-c2ccc(NC(=O)c3cccs3)cc2)no1 : n

Test call, this molecule: "COc1cc(/C=C(\C#N)c2nc3ccc(C)cc3[nH]2)c([N+](=O)[O-])cc1OC"
y

Test call, this molecule: "COc1ccc(NC(=O)COc2cccc3c2CCNC3=O)cc1"
n

Test call, this molecule: "O=C(N/N=C/c1cn(-c2ccccc2)nc1-c1cccnc1)c1ccccc1"
y

###

Test system: H9c2 cardiomyocytes, 2-deoxyglucose stress, ATP luminescence, 2 h
assay_notes: H9c2 cell survival under 2-deoxyglucose stress – uHTS hits, dose response (AID 588780)
Calls of active or inactive are those of the source.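 How the source made its calls: active means compounds whose fitted half-maximal concentration in the cell-protection dose series is at or below a set limit; inactive means the rest.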
Use one of these outcomes when replying: y (active), n (inactive)

Study these solved cases before continuing.
Cc1cc(C)c2c(N)c(C(=O)N/N=C/c3cccnc3)sc2n1 : y
COc1ccccc1N1CCN(C(=O)c2ccc3nc(-c4ccco4)c(-c4ccco4)nc3c2)CC1 : y
CCOc1ccc(NCc2cc3c(C(C)(C)C)nn(-c4ccccc4)c3[nH]c2=O)cc1 : n
CCOC(=O)c1c(C)[nH]c(O)c1C=Nc1ccc(Cl)cc1 : n
CSc1nnc(NC(=O)c2cc3ccccc3oc2=O)s1 : n

Test call, this compound: "CCOC(=O)COc1ccc2c3c(c(=O)oc2c1)CCCC3"
n

###

System: H9c2 cardiomyocytes, 2-deoxyglucose stress, ATP luminescence, 2 h
assay_notes: H9c2 cell survival under 2-deoxyglucose stress – uHTS hits, dose response (AID 588780)
Calls of active or inactive are those of the source.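 How the source made its calls: active means compounds whose fitted half-maximal concentration in the cell-protection dose series is at or below a set limit; inactive means the rest.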
Use one of these outcomes when replying: active, inactive

Study these solved cases before continuing.
COc1cccc(CN(C)C(=O)C(Cc2ccccc2)NC(=O)c2ccccc2)c1OC (centres undefined) : active
COc1cc(-c2cc(C(=O)Nc3ccccc3N3CCOCC3)c3ccccc3n2)cc(OC)c1OC : inactive
O=C(COc1ccccc1[N+](=O)[O-])Nc1ccc(N2CCN(C(=O)c3cccs3)CC2)cc1 : active
O=C(CNC(=O)c1ccc(F)cc1)N/N=C/c1cc(Br)ccc1OC(=O)/C=C/c1ccco1 : inactive
CS(=O)(=O)Nc1ccc(-c2ccc3nccn3c2)cc1 : inactive
COc1ccccc1NS(=O)(=O)c1cc(NC(=O)Cc2n[nH]c(=O)c3ccccc23)ccc1Cl : active
COc1ccc(NC(=S)N(Cc2cccnc2)Cc2cc3cc(OC)c(OC)cc3[nH]c2=O)cc1 : inactive
O=C(Nc1nc(-c2cc(F)ccc2F)cs1)C1=NN(c2ccccc2)C(=O)CC1 : inactive

# input for lookup
Test call, this compound: "O=C1N[C@H](Cc2c[nH]c3ccccc23)COC(=O)[C@H](Cc2ccc(F)cc2)C/C=C\C[C@H]1CC(=O)N(CCO)Cc1ccccc1"
active

###

Tested on: H9c2 cardiomyocytes, 2-deoxyglucose stress, ATP luminescence, 2 h
assay_notes: H9c2 cell survival under 2-deoxyglucose stress – uHTS hits, dose response (AID 588780)
Activity calls are given as the source filed them.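 How the source made its calls: active means compounds whose fitted half-maximal concentration in the cell-protection dose series is at or below a set limit; inactive means the rest.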
Use one of these outcomes when replying: active, inactive

Test call, this molecule: "O=C(NO)c1ccc(C(=O)N(C2CCCCC2)C2CCCCC2)cc1"
inactive

Test call, this molecule: "O=C(Nc1cccc2cccnc12)c1ccc2sc([C@H]3C[C@H](O)[C@@H](CO)O3)nc2c1"
active

Test call, this molecule: "CSc1nc(Cl)c(Br)c(N2CC2)n1"
inactive

Test call, this molecule: "COc1ccc(CNC(=O)c2ccc(Cn3nc(C)c([N+](=O)[O-])c3C)o2)cc1"
inactive
